Test system: HCV replicon in Huh7 cells
Assay: HCV replicon cell-based assay (FRET)
Set-up: species or system HCV strain 1b
Settings: Hepatitis C virus, Huh-7, read-out: EC50 value in the replicon assay
test_readout: EC50 (nM)
Report as a plain number; the unit nM is understood.

EC50 reported for this compound C=CC1C[C@]1(NC(=O)[C@@H]1C[C@@H](Oc2cc(-c3ccccc3)nc3cc(OC)ccc23)CN1C(=O)[C@@H](NC(=O)OC)C(C)(C)C)C(=O)NS(=O)(=O)N(C)Cc1ccccc1 (stereo partly shown) [Compound 9] : 403

* * *

Tested on: HCV replicon in Huh7 cells
Assay: HCV replicon cell-based assay (FRET)
Parameters: species or system HCV strain 1b
Details: Hepatitis C virus, Huh-7, 96 h, 4 days, read-out: Activity Range EC50
test_readout: EC50

compound | value
C=CC1C[C@]1(NC(=O)[C@@H]1C[C@@H](Oc2nccc3cc(OC)ccc23)CN1C(=O)[C@@H](NC(=O)OC(C)(C)C)C(C)(C)C)C(=O)NS(=O)(=O)N(C)CC (some centres unmarked) | < 150 nM
C=CC1C[C@]1(NC(=O)[C@@H]1C[C@@H](Oc2cc(-c3ccccc3)nc3cc(OC)ccc23)CN1C(=O)[C@@H](NC(=O)OC)C(C)(C)C)C(=O)NS(=O)(=O)N(C)C(C)C (some centres unmarked) | 150 to 1500 nM
C=CC1C[C@]1(NC(=O)[C@@H]1C[C@@H](Oc2cc(-c3ccccc3)nc3cc(OC)ccc23)CN1C(=O)[C@@H](NC(=O)OC)C(C)(C)C)C(=O)NS(=O)(=O)N1CCCC1 (some centres unmarked) | 150 to 1500 nM
C=CC1C[C@]1(NC(=O)[C@@H]1C[C@@H](Oc2cc(-c3ccccc3)nc3cc(OC)ccc23)CN1C(=O)[C@@H](NC(=O)OC)C(C)(C)C)C(=O)NS(=O)(=O)N(C)CC (some centres unmarked) | < 150 nM
C=CC1C[C@]1(NC(=O)[C@@H]1C[C@@H](Oc2cc(-c3ccccc3)nc3cc(OC)ccc23)CN1C(=O)[C@@H](NC(=O)OC)C(C)(C)C)C(=O)NS(=O)(=O)N(C)OC (some centres unmarked) | 150 to 1500 nM

Recorded EC50 (compound C=CC1C[C@]1(NC(=O)[C@@H]1C[C@@H](Oc2cc(-c3ccccc3)nc3cc(OC)ccc23)CN1C(=O)[C@@H](NC(=O)OC(C)(C)C)C(C)(C)C)C(=O)NS(=O)(=O)N(C)C (some centres unmarked) ): < 150 nM

What the record says about C=CC1C[C@]1(NC(=O)[C@@H]1C[C@@H](Oc2cc(-c3ccccc3)nc3cc(OC)ccc23)CN1C(=O)[C@@H](NC(=O)OC)C(C)(C)C)C(=O)NS(=O)(=O)N(C)c1ccccc1 (some centres unmarked) : EC50 is < 150 nM

Lab note: C=CC1C[C@]1(NC(=O)[C@@H]1C[C@@H](Oc2nccc3cc(OC)ccc23)CN1C(=O)[C@@H](NC(=O)OC(C)(C)C)C(C)(C)C)C(=O)NS(=O)(=O)N(C)C(C)C (some centres unmarked) gave EC50 of 150 to 1500 nM

* * *

Biological target: human neutrophil elastase (HNE) (Homo sapiens, UniProt P08246)
Sequence (P08246 30-267): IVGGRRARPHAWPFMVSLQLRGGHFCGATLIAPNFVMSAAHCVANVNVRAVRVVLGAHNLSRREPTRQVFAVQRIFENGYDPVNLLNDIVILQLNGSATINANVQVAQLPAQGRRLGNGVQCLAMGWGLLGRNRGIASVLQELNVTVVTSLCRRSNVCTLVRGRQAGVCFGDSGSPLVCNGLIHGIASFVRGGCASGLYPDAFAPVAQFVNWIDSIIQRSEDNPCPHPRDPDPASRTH
Experiment: Specificity assay, human neutrophil elastase
Details: 2 h enzyme-inhibitor pre-incubation
Method: […] Each assay included a 2 h enzyme-inhibitor pre-incubation at room temperature followed by addition of substrate and hydrolysis to ˜30% conversion as measured on a Spectramax Pro microplate reader. […] The percentage of inhibition was calculated using the formula: [1−((UVinh−UVblank)/(UVctl−UVblank))]×100 […]
test_readout: pIC50
Scale explanation: pIC50 corresponds to minus log10 of a concentration expressed in moles per litre.

Kindly note the recorded pIC50 for C=CC1C[C@]1(NC(=O)[C@@H]1C[C@@H](Oc2cc(-c3ccccc3)nc3cc(OC)ccc23)CN1C(=O)[C@@H](NC(=O)OC)C(C)(C)C)C(=O)NS(=O)(=O)N(C)Cc1ccccc1 (stereo partly shown) [Compound 9] , which is 4.34

* * *

Target: NS3/4A protease complex, H77 strain (Hepatitis C virus genotype 1a, UniProt P27958, C1454S/C1711G)
Construct: DNA encoding the recombinant HCV NS3/4A protease complex (amino acids 1027 to 1711) for these strains; inferred from pET21b vector and Ni-NTA purification; made in house; host or cells: Escherichia coli BL21 (DE3), pET21b
Sequence (P27958 1027-1711 C1454S/C1711G, one chain of several): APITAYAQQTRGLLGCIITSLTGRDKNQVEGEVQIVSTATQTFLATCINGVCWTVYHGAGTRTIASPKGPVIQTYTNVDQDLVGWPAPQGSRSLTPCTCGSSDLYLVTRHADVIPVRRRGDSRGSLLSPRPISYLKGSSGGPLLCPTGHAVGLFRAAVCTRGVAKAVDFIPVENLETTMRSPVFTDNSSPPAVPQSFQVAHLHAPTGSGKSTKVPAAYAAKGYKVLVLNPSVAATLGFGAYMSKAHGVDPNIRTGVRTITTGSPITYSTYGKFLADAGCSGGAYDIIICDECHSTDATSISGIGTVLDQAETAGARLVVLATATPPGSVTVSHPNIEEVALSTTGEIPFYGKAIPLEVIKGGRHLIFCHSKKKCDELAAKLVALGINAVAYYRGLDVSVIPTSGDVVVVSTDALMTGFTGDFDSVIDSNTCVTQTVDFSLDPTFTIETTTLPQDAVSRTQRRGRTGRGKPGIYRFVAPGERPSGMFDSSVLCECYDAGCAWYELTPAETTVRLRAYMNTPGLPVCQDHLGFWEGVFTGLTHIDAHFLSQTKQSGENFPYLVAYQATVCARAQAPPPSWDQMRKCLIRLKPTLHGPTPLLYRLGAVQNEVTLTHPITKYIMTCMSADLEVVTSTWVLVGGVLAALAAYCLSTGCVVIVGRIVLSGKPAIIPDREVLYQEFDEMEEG
Assay: Recombinant HCV NS3/4A protease complex FRET peptide assay, H77 strain
Type: biochemical, HCV genotype 1a (H77)
test_readout: pIC50
Friendly reminder that pIC50 comes from taking -log10 of the concentration in mol/L.

What the record says about C=CC1C[C@]1(NC(=O)[C@@H]1C[C@@H](Oc2cc(-c3ccccc3)nc3cc(OC)ccc23)CN1C(=O)[C@@H](NC(=O)OC)C(C)(C)C)C(=O)NS(=O)(=O)N(C)Cc1ccccc1 (stereo partly shown) : pIC50 is 7.21

* * *

Tested on: HCV replicon in Huh7 cells
Assay: HCV replicon cell-based assay (FRET)
Parameters: species or system HCV strain 1b
Conditions: Hepatitis C virus, Huh-7, 96 h, 4 days, read-out: Activity Range EC50
pEC50: −log10 of the molar value.
test_readout: pEC50

Take a look at these entries with their results.
compound | test_readout | value
C=CC1C[C@]1(NC(=O)[C@@H]1C[C@@H](Oc2cc(-c3ccccc3)nc3cc(OC)ccc23)CN1C(=O)[C@@H](NC(=O)OC)C(C)(C)C)C(=O)NS(=O)(=O)N1CCCCO1 (stereo partly shown) [Compound 11] | pEC50 | < 5.82
C=CC1C[C@]1(NC(=O)[C@@H]1C[C@@H](Oc2nccc3cc(OC)ccc23)CN1C(=O)[C@@H](NC(=O)OC(C)(C)C)C(C)(C)C)C(=O)NS(=O)(=O)N1CCCC1 (stereo partly shown) [Compound 18] | pEC50 | > 6.82
C=CC1C[C@]1(NC(=O)[C@@H]1C[C@@H](Oc2cc(-c3ccccc3)nc3cc(OC)ccc23)CN1C(=O)[C@@H](NC(=O)OC)C(C)(C)C)C(=O)NS(=O)(=O)N1CCC1 (stereo partly shown) [Compound 4] | pEC50 | 5.82 to 6.82
C=CC1C[C@]1(NC(=O)[C@@H]1C[C@@H](Oc2nccc3cc(OC)ccc23)CN1C(=O)[C@@H](NC(=O)OC(C)(C)C)C(C)(C)C)C(=O)NS(=O)(=O)N(C)C (stereo partly shown) [Compound 17] | pEC50 | 5.82 to 6.82
C=CC1C[C@]1(NC(=O)[C@@H]1C[C@@H](Oc2cc(-c3ccccc3)nc3cc(OC)ccc23)CN1C(=O)[C@@H](NC(=O)OC(C)(C)C)C(C)(C)C)C(=O)NS(=O)(=O)N(C)c1ccccc1 (stereo partly shown) [Compound 16] | pEC50 | > 6.82
C=CC1C[C@]1(NC(=O)[C@@H]1C[C@@H](Oc2cc(-c3ccccc3)nc3cc(OC)ccc23)CN1C(=O)[C@@H](NC(=O)OC)C(C)(C)C)C(=O)NS(=O)(=O)N(C)C (stereo partly shown) [Compound 3] | pEC50 | > 6.82

The compound listed as C=CC1C[C@]1(NC(=O)[C@@H]1C[C@@H](Oc2cc(-c3ccccc3)nc3cc(OC)ccc23)CN1C(=O)[C@@H](NC(=O)OC)C(C)(C)C)C(=O)NS(=O)(=O)N1CCCCC1 (stereo partly shown) [Compound 10] has a reported pEC50 of 5.82 to 6.82

* * *

Biological target: HCV NS3/4A protease complex (UniProt P27958, C1454S/C1711G, species not given)
Construct: fused on or other part: Three-lysine solubilising tail at the C-terminus of NS4A
Test: Recombinant HCV NS3/4A protease complex FRET peptide assay (strain not stated)
Conditions: NS3/4A protease enzyme assay, read-out: Activity Range IC50
pIC50: −log10 of the molar value.
test_readout: pIC50

compound | pIC50
C=CC1C[C@]1(NC(=O)[C@@H]1C[C@@H](Oc2cc(-c3ccccc3)nc3cc(OC)ccc23)CN1C(=O)[C@@H](NC(=O)OC)C(C)(C)C)C(=O)NS(=O)(=O)N1CCOCC1 (some centres unmarked) | 5.82 to 6.82
C=CC1C[C@]1(NC(=O)[C@@H]1C[C@@H](Oc2cc(-c3ccccc3)nc3cc(OC)ccc23)CN1C(=O)[C@@H](NC(=O)OC(C)(C)C)C(C)(C)C)C(=O)NS(=O)(=O)N(C)c1ccccc1 (some centres unmarked) | > 6.82
C=CC1C[C@]1(NC(=O)[C@@H]1C[C@@H](Oc2cc(-c3ccccc3)nc3cc(OC)ccc23)CN1C(=O)[C@@H](NC(=O)OC)C(C)(C)C)C(=O)NS(=O)(=O)N1CCCC1 (some centres unmarked) | > 6.82
C=CC1C[C@]1(NC(=O)[C@@H]1C[C@@H](Oc2nc(-c3ccncc3)cc3ccccc23)CN1C(=O)[C@@H](NC(=O)OC(C)(C)C)C(C)(C)C)C(=O)NS(=O)(=O)N(C)C (some centres unmarked) | > 6.82

pIC50 measured on C=CC1C[C@]1(NC(=O)[C@@H]1C[C@@H](Oc2cc(-c3ccccc3)nc3cc(OC)ccc23)CN1C(=O)[C@@H](NC(=O)OC)C(C)(C)C)C(=O)NS(=O)(=O)N1CCCCC1 (some centres unmarked) = > 6.82
